src = patent US8349878B2

molecular target: σ1-receptor (Cavia porcellus); construct: guinea pig brains were homogenized; from tissue; host or cells: guinea pig brain membranes; experiment: Sigma-1 receptor binding assay, [3H](+)-pentazocine displacement in guinea pig brain membranes; settings: compound at 0.01 μM; [3H](+)-pentazocine 0.5 nM; guinea pig brain membranes; read-out: Sigma-1 Inhibition percent (0.01 μM)
Sequence (Q60492 whole entry): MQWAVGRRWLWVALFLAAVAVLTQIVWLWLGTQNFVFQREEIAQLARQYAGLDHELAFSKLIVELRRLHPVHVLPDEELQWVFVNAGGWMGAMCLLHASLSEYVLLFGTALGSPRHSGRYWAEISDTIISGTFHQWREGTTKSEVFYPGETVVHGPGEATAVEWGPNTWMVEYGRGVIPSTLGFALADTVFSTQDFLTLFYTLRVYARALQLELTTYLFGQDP
Counter-ions that a name gives are not always drawn.
PROPERTY: inhibition at 0.01 µM (%)

Recorded results for 3 molecules are shown here.
// recorded inhibition at 0.01 µM for Cc1nc(OCCCCN2CCOCC2)nn1-c1ccccc1 : -15.1

// recorded inhibition at 0.01 µM for Cc1nc(OCCN2CCOCC2)nn1-c1ccccc1 : -20.9

// recorded inhibition at 0.01 µM for Cc1nc(OCCN2CCCCC2)nn1-c1ccccc1 : 5.8

A: Cc1nc(SCCCCCN2CCCCC2)nn1-c1ccc(Cl)c(Cl)c1 [compound 12, oxalate]
B: Cc1nc([S+]([O-])CCCCN2CCC(c3ccccc3)CC2)nn1-c1ccc(Cl)c(Cl)c1 (stereo not shown)
C: Cc1nc(SCCN2CCCCC2)nn1-c1ccc(Cl)c(Cl)c1
Ranking field: inhibition at 0.01 µM; order: falling. Write the labels in rank order as requested.
C, A, B
(C: 105%, A: 52.1%, B: -39.5%)

I: CCN(CC)CCSc1nc(C)n(-c2ccc(Cl)c(Cl)c2)n1 [compound 5, oxalate]
II: CCN(CC)CCS(=O)(=O)c1nc(C)n(-c2ccc(Cl)c(Cl)c2)n1
III: Cc1nc(SCCCCCN2CCOCC2)nn1-c1ccc(Cl)c(Cl)c1 [compound 13, oxalate]
IV: CCN(CC)CCOc1nc(C)n(-c2ccccc2)n1
Ranking field: inhibition at 0.01 µM; order: falling. Write the labels in rank order as requested.
I, II, IV, III

---

target: σ1-receptor (Cavia porcellus); construct: guinea pig brains were homogenized; from tissue; host or cells: guinea pig brain membranes; experiment: Sigma-1 receptor binding assay, [3H](+)-pentazocine displacement in guinea pig brain membranes; conditions: compound at 0.1 μM; [3H](+)-pentazocine 0.5 nM; guinea pig brain membranes; read-out: Sigma-1 Inhibition percent (0.1 μM)
Structures can show the parent of a compound that is named as a salt.
PROPERTY: inhibition at 0.1 µM (%)

Recorded results for 5 compounds are shown here.
// recorded inhibition at 0.1 µM for CCN(CC)CCS(=O)(=O)c1nc(C)n(-c2ccc(Cl)c(Cl)c2)n1 : 82.1

// recorded inhibition at 0.1 µM for Cc1nc(OCCN2CCOCC2)nn1-c1ccccc1 : -3.4

// recorded inhibition at 0.1 µM for Cc1nc([S+]([O-])CCN2CCCC2)nn1-c1ccc(Cl)c(Cl)c1 (centres unmarked) : 88.9

// recorded inhibition at 0.1 µM for Cc1nc(SCCCCCN2CCCC2)nn1-c1ccc(Cl)c(Cl)c1 [compound 14, oxalate] : 52.5

// recorded inhibition at 0.1 µM for Cc1nc(SCCCCCN2CCCCC2)nn1-c1ccc(Cl)c(Cl)c1 [compound 12, oxalate] : 82.8

P: Cc1nc(S(=O)(=O)CCCCN2CCOCC2)nn1-c1ccc(Cl)c(Cl)c1
Q: Cc1nc(S(=O)(=O)CCN2CCCC2)nn1-c1ccc(Cl)c(Cl)c1
Quick one: lower inhibition at 0.1 µM, P or Q ? Write down the label of the entry you select.
P
(P: 20.5%, Q: 96.4%)
